- test target: Proto-oncogene tyrosine-protein kinase Src (Homo sapiens, UniProt P12931)
- Sequence (P12931 2-536 limits assumed): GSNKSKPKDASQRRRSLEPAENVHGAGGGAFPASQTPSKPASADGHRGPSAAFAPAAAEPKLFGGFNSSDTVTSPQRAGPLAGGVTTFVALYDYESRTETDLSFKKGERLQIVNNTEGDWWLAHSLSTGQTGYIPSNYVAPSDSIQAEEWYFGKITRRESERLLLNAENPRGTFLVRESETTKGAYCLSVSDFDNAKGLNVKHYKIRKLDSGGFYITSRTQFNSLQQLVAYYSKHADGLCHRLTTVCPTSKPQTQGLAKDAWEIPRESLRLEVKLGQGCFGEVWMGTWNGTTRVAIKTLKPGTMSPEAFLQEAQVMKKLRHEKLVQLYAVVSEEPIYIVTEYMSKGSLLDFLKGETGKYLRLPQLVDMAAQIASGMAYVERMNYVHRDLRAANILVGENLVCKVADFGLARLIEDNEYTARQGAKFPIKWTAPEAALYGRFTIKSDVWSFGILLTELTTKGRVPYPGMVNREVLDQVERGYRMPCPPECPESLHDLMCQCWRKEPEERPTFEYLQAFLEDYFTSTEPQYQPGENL
Please use class 1 for IC50 under 10 nM and class 0 for everything else, ties included.

| given smiles | category label |
| --- | --- |
| COc1cc(Nc2c(C#N)cnc3cc(-c4ccc(CN5CCOCC5)cc4)c(OC)cc23)c(Cl)cc1Cl | class 0 |
| COc1cc(Nc2c(C#N)cnc3cc(-c4ccccc4CN4CCOCC4)ccc23)c(Cl)cc1Cl | class 0 |
| CCN1CCN(CCc2ccc(-c3ccc4c(Nc5cc(OC)c(Cl)cc5Cl)c(C#N)cnc4c3)cc2)CC1 | class 1 |
| COc1cc(Nc2c(C#N)cnc3cc(-c4ccc(CCN5CCOCC5)cc4)ccc23)c(Cl)cc1Cl | class 0 |
| COc1cc(Nc2c(C#N)cnc3cc(-c4ccc(CCN5CCOCC5)cc4)c(OC)cc23)c(Cl)cc1Cl | class 0 |
| COc1cc(Nc2c(C#N)cnc3cc(-c4ccc(CN5CCOCC5)cc4)ccc23)c(Cl)cc1Cl | class 1 |
